- System: HEK-293T
- method: Incucyte cell viability with HEK293T; also: filed as whole numbers so only -1 and 0 and 1 occur
- Type: toxicity, cell-based
- test-parameters: human, 24 h, 10 µM, compound concentration 10 uM, replicate number 1, timepoint 24 hours
Quick reference: Growth Rate of the listed items.

Supply measured Growth Rate of FC(F)c1nc2ccccc2n1-c1nc(N2CCOCC2)nc(N2CCOCC2)n1 in your reply.
0

Supply measured Growth Rate of CCN(CC)CCCCC1CCN(CC(=O)N2c3ccccc3C(=O)Nc3cccnc32)CC1 in your reply.
1

Supply measured Growth Rate of Cl.Cl.Nc1ncnc2c1c(-c1cccc(OCc3ccccc3)c1)cn2[C@H]1C[C@@H](CN2CCC2)C1 in your reply.
0

Supply measured Growth Rate of C1=N/C2=N/c3ccc(OCCN4CCCC4)c(c3)COC/C=C\COCc3cccc(c3)C(=C1)N2 in your reply.
0

Supply measured Growth Rate of CN(C(=O)Cc1ccc(Cl)c(Cl)c1)C(CN1CCCC1)c1cccc(OCC(=O)O)c1.Cl (stereo not given) in your reply.
1

Supply measured Growth Rate of COc1cc(N2CCC(N(C)C)CC2)ccc1Nc1ncc(Cl)c(Nc2ccccc2P(C)(C)=O)n1 in your reply.
0

Supply measured Growth Rate of CCCc1c(-c2ccc(O)cc2)nn(-c2ccc(O)cc2)c1-c1ccc(O)cc1 in your reply.
0

Supply measured Growth Rate of CCc1cc2c(c(CC)n1)CCC(=O)N2Cc1ccc(-c2ccccc2-c2nnn[nH]2)cc1.Cl in your reply.
1

Supply measured Growth Rate of COc1ccccc1C(=O)Nc1cc2c(cc1N1CCCC1)n(C)c(=O)n2C in your reply.
1

Supply measured Growth Rate of CCC(=O)N[C@H]1CC[C@@H](C(=O)N(C)c2ccc(-c3nc4ccccc4o3)cc2)C1 in your reply.
0

Supply measured Growth Rate of COc1ccc(COc2ccc(Cc3cnc(N)nc3N)cc2OC)cc1 [GW632580X] in your reply.
0

Supply measured Growth Rate of Clc1cc2c(NC3CCCC3)nnc(-c3ccncc3)c2cc1Cl in your reply.
1

Supply measured Growth Rate of N#CC1(c2ccccn2)CCN(Cc2cc(C(=O)N3CCCC3)c(=O)n3ccccc23)CC1 in your reply.
0

Supply measured Growth Rate of Cc1nc(C#Cc2ccnc(Cl)c2)c(C)n1-c1ccc(OC(F)(F)F)cc1 in your reply.
0

Supply measured Growth Rate of C[C@H](CO)Nc1nc(SCc2cccc(Cl)c2F)nc2[nH]c(=O)sc12 in your reply.
1

Supply measured Growth Rate of CC(=O)[C@@]1(O)CC[C@H]2[C@@H]3C[C@H](C)C4=CC(=O)CC[C@]4(C)[C@H]3CC[C@@]21C in your reply.
0

Supply measured Growth Rate of Cc1nc2sccn2c(=O)c1CCN1CCC(=C(c2ccc(F)cc2)c2ccc(F)cc2)CC1 in your reply.
0

Supply measured Growth Rate of CC(C)(C)c1cnc(CSc2cnc(NC(=O)C3CCNCC3)s2)o1 in your reply.
0

Supply measured Growth Rate of COc1cc2c(NC3CCN(C(C)C)CC3)nc(N3CCC(F)(F)CC3)nc2cc1OCCCN1CCCC1 in your reply.
0

* * *

- Test system: U2OS
- method: Multiplex assay against U2OS
- Assay type: toxicity, cell-based
- test-parameters: human, 24 h, 1 µM, compound concentration 1 uM, replicate 2
property: Population Normal (%)
Could you give me the number in %? Just the number is fine.

* COc1ccc(NS(=O)(=O)c2sc3ccc(Cl)cc3c2C)cc1N1CCNCC1.Cl | 96
* CCOc1cc2ncc(C#N)c(Nc3ccc(OCc4cccc(F)c4)c(Cl)c3)c2cc1NC(=O)/C=C/CN(C)C | 92
* CC(=O)c1cc(-c2cc(C(=O)NC3CC3)ccc2C)c2ncccn12 | 95
* CC(C)Oc1ccc(C(=O)N[C@H](CNC(=O)CN(C)C)Cc2ccc(-c3cn4cccc([C@H](C)O)c4n3)cc2)cc1Cl [GSK-923295A] | 89
* CCc1cc2c(cc1CC)CC(NC[C@H](O)c1ccc(O)c3[nH]c(=O)ccc13)C2 | 96
* COc1cc2c(NC3CCN(C(C)C)CC3)nc(N3CCC(F)(F)CC3)nc2cc1OCCCN1CCCC1 | 91
* O=C(O)c1ccc2cc(-c3ccc(O)c(C45CC6CC(CC(C6)C4)C5)c3)ccc2c1 | 93
* CNC(=O)c1cc(Oc2ccc(NC(=O)Nc3cc(C(C)(C)C)nn3-c3ccc4ncccc4c3)c(F)c2)ccn1 | 86

Continue with the molecule presented below.
Please report Population Normal (%) with U2OS for item CNc1oc(-c2cccc3ccccc23)nc1C#N .
93

* * *

Quick reference: Population Normal (%) of the listed items.
- Tested on: Fibroblast
- method: Multiplex assay against human fibroblast
- Format: toxicity, cell-based
- test-parameters: 24 h, 10 µM, compound concentration 10 uM, replicate 1
Could you give me the number in %? Just the number is fine.

Worked set:
* CCC(=O)O[C@]1(C(=O)SCF)[C@H](C)C[C@H]2[C@@H]3C[C@H](F)C4=CC(=O)C=C[C@]4(C)[C@@]3(F)[C@@H](O)C[C@@]21C [FLUTICASONE PROPIONATE] | 87
* Cc1cn(-c2cc(NC(=O)c3ccc4c(c3)CN(c3cncnc3)C[C@@H]4C)cc(C(F)(F)F)c2)cn1 | 83

Please report Population Normal (%) with Fibroblast for item CCn1c(-c2nonc2N)nc2cnc(Oc3cccc(NC(=O)c4ccc(OCCN5CCOCC5)cc4)c3)cc21 [GSK-269962A] .
87

Please report Population Normal (%) with Fibroblast for item CCc1cc2c(cc1CC)CC(NC[C@H](O)c1ccc(O)c3[nH]c(=O)ccc13)C2 .
66

* * *

- System: U2OS
- method: Incucyte cell viability with U2OS; also: filed as whole numbers so only -1 and 0 and 1 occur
- Type: toxicity, cell-based
- test-parameters: human, 0 h, 10 µM, compound concentration 10 uM, replicate number 1, timepoint 0 hours
Quick reference: Growth Rate of the listed items.

* CNc1oc(-c2cccc3ccccc23)nc1C#N | 0
* CC(C)N1CCC(C)(C)c2cc(C#Cc3ccc(C(=O)O)cc3)ccc21 | 0
* Cl.Cl.Nc1ncnc2c1c(-c1cccc(OCc3ccccc3)c1)cn2[C@H]1C[C@@H](CN2CCC2)C1 | 0
* Nc1nc(NCc2ccccc2)nc(-c2cccc(CO)c2)n1 | 0
* CCCc1c(-c2ccc(O)cc2)nn(-c2ccc(O)cc2)c1-c1ccc(O)cc1 | 1
* CCC(=O)N1CC[C@H](Nc2ncnc3c2CN(c2cnc(OC)c(C(F)(F)F)c2)CC3)C1 | 0

Supply measured Growth Rate of COc1cc2c(Nc3ccc(NC(=O)c4ccccc4)cc3)ncnc2cc1OCCCN1CCOCC1 in your reply.
1

Supply measured Growth Rate of CCCc1cc(C)[nH]c(=O)c1CNC(=O)c1cc(-c2ccnc(N3CCN(C)CC3)c2)cc2c1cnn2C(C)C in your reply.
0

Supply measured Growth Rate of CN1C(=O)[C@@H](N2CCc3c(nn(Cc4ccccc4)c3Br)C2=O)COc2ccccc21 in your reply.
0

* * *

Quick reference: Population Normal (%) of the listed items.
- Test system: HEK-293T
- method: Multiplex assay against HEK293T
- Format: toxicity, cell-based
- test-parameters: human, 12 h, 10 µM, compound concentration 10 uM, replicate 2
Could you give me the number in %? Just the number is fine.

Worked set:
• CNc1oc(-c2cccc3ccccc23)nc1C#N = 52
• CC(C)N1CCC(C)(C)c2cc(C#Cc3ccc(C(=O)O)cc3)ccc21 = 55
• CCC(=O)O[C@]1(C(=O)SCF)[C@H](C)C[C@H]2[C@@H]3C[C@H](F)C4=CC(=O)C=C[C@]4(C)[C@@]3(F)[C@@H](O)C[C@@]21C [FLUTICASONE PROPIONATE] = 93

Continue with the molecule presented below.
Supply measured Population Normal (%) of c1ccc2oc(-c3csc(C4CCN(Cc5nc6ncccc6[nH]5)CC4)n3)cc2c1 in your reply.
96

* * *

- Test system: HEK-293T
- method: Multiplex assay against HEK293T
- Assay type: toxicity, cell-based
- test-parameters: human, 24 h, 10 µM, compound concentration 10 uM, replicate 1
property: Population Hoechst High Intensity Objects (%)
Could you give me the number in %? Just the number is fine.

* Cc1cn(-c2cc(NC(=O)c3ccc4c(c3)CN(c3cncnc3)C[C@@H]4C)cc(C(F)(F)F)c2)cn1 | 12
* CNc1oc(-c2cccc3ccccc23)nc1C#N | 40
* CCCn1c(=O)c2[nH]c(C34CC5CC(CC3C5)C4)nc2n(CCC)c1=O | 14
* CNC(=O)c1cc(Oc2ccc(NC(=O)Nc3cc(C(C)(C)C)nn3-c3ccc4ncccc4c3)c(F)c2)ccn1 | 15

Supply measured Population Hoechst High Intensity Objects (%) of N#Cc1cnc(Nc2cc(NC[C@H]3CNCCO3)c(C(F)(F)F)cn2)cn1 in your reply.
10

Supply measured Population Hoechst High Intensity Objects (%) of COc1ccc(NS(=O)(=O)c2sc3ccc(Cl)cc3c2C)cc1N1CCNCC1.Cl in your reply.
21

Supply measured Population Hoechst High Intensity Objects (%) of CCn1c(-c2nonc2N)nc2cnc(Oc3cccc(NC(=O)c4ccc(OCCN5CCOCC5)cc4)c3)cc21 [GSK-269962A] in your reply.
12

Supply measured Population Hoechst High Intensity Objects (%) of CCOc1cc(N2CCC(O)CC2)ccc1Nc1ncc2c(n1)N(C1CCCC1)CCC(=O)N2C in your reply.
6

Supply measured Population Hoechst High Intensity Objects (%) of CN(C)C/C=C/C(=O)Nc1cc2c(Nc3ccc(F)c(Cl)c3)ncnc2cc1O[C@H]1CCOC1.O=C(O)/C=C\C(=O)O.O=C(O)/C=C\C(=O)O [AFATINIB DIMALEATE] in your reply.
19

Supply measured Population Hoechst High Intensity Objects (%) of Cc1c(Oc2ccc(F)cc2)c(OC(C)C)nn1-c1ccc(C2CC2)cn1 in your reply.
6
